Procedure summary: collision cross section of modified peptide (TIMS, N2, iRT-aligned); higher = larger / more extended gas-phase ion
Measurement context: charge state: 2; modification: Butyryl
Quantity measured: collision cross section (Å²)
Give the value, in units of Å², as a plain number.

> print(dat)
                            sequence.record  assay.value
1  AGPNASIISLKSDK [_AGPNASIISLK(Butyryl)SDK_]       413.93
2  ANLEKAQAELVGTADEATR [_ANLEK(Butyryl)AQAELVGTADEATR_]       479.49
3  GSLGAQKLANTCFNEIEK [_GSLGAQK(Butyryl)LANTCFNEIEK_]       475.25
4  GADFLVTEVENGGSLGSKK [_GADFLVTEVENGGSLGSK(Butyryl)K_]       476.08

Switching to the query record.
VGEFSGANKEK [_VGEFSGANK(Butyryl)EK_] has a reported collision cross section of 369.78

###

Procedure summary: collision cross section of modified peptide (TIMS, N2, iRT-aligned); higher = larger / more extended gas-phase ion
Measurement context: charge state: 3; modification: Malonyl
Measured collision cross section values are reported for all entries that follow.
Give the value, in units of Å², as a plain number.

Field: example entries. Status: answers known.
> print(dat)
                             sequence.record        quantity.measured  assay.value
 1  VPTTEKPTVTVNFR [_VPTTEK(Malonyl)PTVTVNFR_]  collision cross section       511.14
 2    KYEEIDNAPEER [_K(Malonyl)YEEIDNAPEER_]  collision cross section       491.92
 3  AAQASDLEKIHLDEK [_AAQASDLEK(Malonyl)IHLDEK_]  collision cross section       500.48
 4  VGLQVVAVKAPGFGDNR [_VGLQVVAVK(Malonyl)APGFGDNR_]  collision cross section       541.36
 5  AAINQKLIETGER [_AAINQK(Malonyl)LIETGER_]  collision cross section       473.19
 6  VDVEVPDVSLEGPEGKLK [_VDVEVPDVSLEGPEGK(Malonyl)LK_]  collision cross section       496.84
 7  VLDSGAPIKIPVGPETLGR [_VLDSGAPIK(Malonyl)IPVGPETLGR_]  collision cross section       512.64
 8  LFVGGIKEDTEEHHLR [_LFVGGIK(Malonyl)EDTEEHHLR_]  collision cross section        537.8
 9          DHLSDKESK [_DHLSDK(Malonyl)ESK_]  collision cross section       411.48
10  LLIVSTTPYSEKDTK [_LLIVSTTPYSEK(Malonyl)DTK_]  collision cross section       468.47

YEQEHAAIQDKLFQVAK [_YEQEHAAIQDK(Malonyl)LFQVAK_] has a reported collision cross section of 515.74

DASTLQSQKAEGTGDAK [_DASTLQSQK(Malonyl)AEGTGDAK_] has a reported collision cross section of 490.61

ITLSKHQNVQLPR [_ITLSK(Malonyl)HQNVQLPR_] has a reported collision cross section of 478.94

###

Procedure summary: collision cross section of modified peptide (TIMS, N2, iRT-aligned); higher = larger / more extended gas-phase ion
Measurement context: charge state: 2; modification: Malonyl
Kindly return Y if reported collision cross section is no lower than 400 Å²; return N if it is lower.

Consider the following illustrative entries.
> print(dat)
                            sequence.record  answer.label
1  SGNLTEDDKHNNAK [_SGNLTEDDK(Malonyl)HNNAK_]             Y
2      VGEFSGANKEK [_VGEFSGANK(Malonyl)EK_]             N
3    LGSPSGKTGTCR [_LGSPSGK(Malonyl)TGTCR_]             N

Does the sequence ATVASSTQKFQDLGVK [_ATVASSTQK(Malonyl)FQDLGVK_] have recorded collision cross section that is 400 Å² or more?
Y

Does the sequence VSPASSVDSNIPSSQGYKK [_VSPASSVDSNIPSSQGYK(Malonyl)K_] have recorded collision cross section that is 400 Å² or more?
Y
